Tested on: MDA-MB-435
Protocol notes: NCI tumour cell line growth inhibition, 48 h
Active and inactive are the calls of the source. No stated cut-off is given here; in the data, active = GI50 up to about 1.1 µM and inactive = higher.
Classes used: active, inactive

| Molecule | Discrete label |
| --- | --- |
| Cn1c(=O)n2n(c1=O)C([S+]([O-])c1ccccc1)C2 (configuration not stated) | inactive |
| O=C(CCCC1Cc2ccccc2C1=O)c1ccccc1 (configuration not stated) | inactive |
| O=C(Nc1sccc1S(=O)(=O)c1ccc(Cl)cc1)C(F)(F)F | inactive |
| O=C1NC(N2CCCC(CO)C2)=N/C1=C\c1cccs1 (configuration not stated) | inactive |
| COC(=O)C(/C(=N/N)C(=O)Nc1ccc(C)c(C)c1)c1nc2ccc(Cl)cc2nc1O (configuration not stated) | inactive |
| CC(C)(C)OC(=O)NCCCCC(NC(=O)OCc1ccccc1)C(N)=O (configuration not stated) | inactive |
| NCCSCCc1ccccc1 | inactive |
| CC1(N2CCOCC2)CC2C(=[N+]1[O-])CCC/C2=N/O (configuration not stated) | inactive |
| CC1OC(O[C@@H]2OC=C(C=O)[C@@]3(O)CC[C@H](C)[C@@H]23)C(O)C(O)C1O (some centres not stated) | inactive |
| S=C(S)N1CCN(c2ccc(Cl)c(Cl)c2)CC1 | inactive |
| CC(=O)c1ccc2c(c1)CC1(C2)Cc2ccccc2C1=O (configuration not stated) | inactive |
| O=c1c2ccccc2[nH]c(=S)n1-c1ccc(/N=N/c2cccc3c(O)cccc23)cc1 | inactive |
| CC(=O)Nc1ccc(Nc2cc(=O)n(C)c(=O)[nH]2)cc1 | inactive |
| COC(=O)[C@@H]1C[C@@H]2c3ccccc3N(S(=O)(=O)c3ccccc3)[C@@H]2N1C(=O)OC | inactive |
| COC(=O)c1c(C)cccc1C1CN=NC12Cc1cccc(C)c1C2=O (configuration not stated) | inactive |
| CN1C2CCC1CC(CC(=O)NC(c1ccc(F)cc1)c1ccc(F)cc1)C2 (configuration not stated) | inactive |
| O=C1[C@H](O)[C@@H]2CCC[C@@]23CCCN13 | inactive |
| CCCCCCNCCCNc1c2ccccc2nc2cccc([N+](=O)[O-])c12 | active |
| CCCCCCCCCCOC1C(C(O)CNCCCN(C)C)OC2OC3(CCCCC3)OC21 (configuration not stated) | inactive |
| CC(C)=CCc1cc(C2COc3cc4c(c(O)c3C2=O)C=CC(C)(C)O4)c(O)cc1O (configuration not stated) | inactive |
| Nc1ncc2c(n1)-c1ccccc1OC2NC1CC1 (configuration not stated) | inactive |
| CNC(=O)N(C1=NCC(C)S1)c1ccc(C)c(C)c1 (configuration not stated) | active |

====

System: DMS-273
Protocol notes: NCI tumour cell line growth inhibition, 48 h
The source made the active and inactive calls. Rule as the data show it: active = GI50 up to about 1.1 µM and inactive = higher.
Recorded GI50 for the following compounds
Parameter measured: GI50

| Compound | Result |
| --- | --- |
| COC(=O)C(CCC1(C)OCCO1)=[N+]=[N-] | > 100 µM (inactive) |
| CCC1(CN(C)C)CC/C(=C\c2ccc(OC)cc2)C1=O (stereo not drawn) | > 100 µM (inactive) |
| COc1ccccc1NC(=O)C1=C(C)NC(C)=C(C(=O)Nc2ccccc2OC)C1c1ccccc1Cl | > 100 µM (inactive) |
| O=C1Nc2cccc3ncn(c23)C2=C1CCCC2 | > 100 µM (inactive) |
| COc1ccc2c3c([nH]c(=O)c2c1C(=O)O)-c1ccccc1CC3 | > 100 µM (inactive) |
| CCOC(=O)C1(Br)S(=O)(=O)OCCOS1(=O)=O | > 100 µM (inactive) |
| CCC1(Br)C(=O)NC(=O)N(C2CC(O)C(CO)O2)C1N=[N+]=[N-] (stereo not drawn) | > 100 µM (inactive) |
| Cc1cc(NS(=O)(=O)c2ccc(Nc3c4ccccc4nc4c(C(=O)Nc5ccc(S(=O)(=O)N=C(N)N)cc5)cccc34)cc2)no1 | > 100 µM (inactive) |
